// provenance: the supplement of paper PMC8633005

Form field: drug sensitivity score (one value per entry).
# Test system: Bowes
# experiment notes: drug sensitivity score (DSS) (DSS (unitless, 0-50 scale)); higher = more sensitive (stronger viability inhibition); extreme values may be limits of the assay
# condition context: 72 h; culture: 2D
// print number alone

molecule	numeric value
CCc1cncnc1N1CCN(Cc2nc3ccc(C(F)(F)F)cc3[nH]2)CC1	2.1
Cn1cnc2c(F)c(Nc3ccc(Br)cc3Cl)c(C(=O)NOCCO)cc21	0
CN1CC[C@@H](NC(=O)Nc2ccc(C#N)cc2)C[C@@H]1c1nc2ccccc2[nH]1	0
CC(C)(C)C[C@@H]1N[C@@H](C(=O)N[C@H]2CC[C@H](O)CC2)[C@H](c2cccc(Cl)c2F)[C@]12C(=O)Nc1cc(Cl)ccc12	2.2
NC(=O)c1cccc2cn(-c3ccc([C@@H]4CCCNC4)cc3)nc12	0

Given "O=C(CCNC(=O)c1ccc(OC(F)(F)F)cc1)N[C@@H]1CCCc2ccccc21" , state its recorded drug sensitivity score.
0

Quick check: drug sensitivity score of "C[C@H]1CNCCCN1S(=O)(=O)c1cccc2cncc(F)c12" ?
0

Return reported drug sensitivity score; argument: "CN(C)C[C@@H]1CCn2cc(c3ccccc32)C2=C(C(=O)NC2=O)c2cn(c3ccccc23)CCO1"
4.5

# query: drug sensitivity score of entry "CCN(c1cc(-c2ccc(CN3CCOCC3)cc2)cc(C(=O)NCc2c(C)cc(C)[nH]c2=O)c1C)C1CCOCC1"
1.5

Which value of drug sensitivity score has been reported for "C[C@@]1(C(=O)Nc2ccc(F)nc2)CCCN1c1nc(Nc2cc(C3CC3)n[nH]2)c2cccn2n1" in the records?
11.7

Entry "CC[C@H](C)C(=O)O[C@H]1C[C@H](O)C=C2C=C[C@H](C)[C@H](CC[C@@H](O)C[C@@H](O)CC(=O)O)[C@H]21" has what drug sensitivity score?
0

State the recorded drug sensitivity score for this entry: Cc1sc2c(c1C)C(c1ccc(Cl)cc1)=N[C@@H](CC(=O)Nc1ccc(OCCOCCOCCOCCNc3cccc4c3C(=O)N(C3CCC(=O)NC3=O)C4=O)cc1)c1nnc(C)n1-2 (some centres undefined)
14.2

Name the recorded drug sensitivity score for "CCS(=O)(=O)Nc1ccc(Oc2ccc(F)cc2F)c(-c2cn(C)c(=O)c3[nH]ccc23)c1" .
17

Bench note: what drug sensitivity score did "CNS(=O)(=O)Nc1nccc(Cc2c(C)c3ccc(Oc4ncccn4)cc3oc2=O)c1F" show?
0.6

Query (molecule): "Cc1nc(C(=O)NCC(=O)O)c(O)c2ccc(Oc3ccccc3)cc12" ; field requested: drug sensitivity score
0

Can you look up the measured drug sensitivity score of "COc1cc(N2CCC(N3CCN(C)CC3)CC2)ccc1Nc1ncc(Cl)c(Nc2ccccc2P(C)(C)=O)n1" for me?
1.1

Any idea what drug sensitivity score was measured for "NC[C@@](O)(c1ccc(Cl)cc1)c1ccc(-c2cn[nH]c2)cc1" ?
0

Report drug sensitivity score for "CC[C@@](C)(Nc1ccnc(-c2c[nH]c3ncccc23)n1)C(=O)NCC(F)(F)F" please.
0

Look at this molecule and give its reported drug sensitivity score. "C[C@@H]1COC(Nc2ccc3ncnc(Nc4ccc(OCc5nccs5)c(Cl)c4)c3c2)=N1"
0

What value of drug sensitivity score has been recorded for this entry: "O=C(c1ccc(C(=O)N2CCC(N3CCCC3)CC2)c(Nc2ccccc2)c1)N1CCC(N2CCCC2)CC1"
0

Can you look up the measured drug sensitivity score of "CO[C@H]1CC[C@H](N2C(=O)CNc3ncc(-c4ccc(C(C)(C)O)nc4)nc32)CC1" for me?
4.1

Look at this molecule and give its reported drug sensitivity score. "CC#CC(=O)N1CC[C@@H](n2c(=O)n(-c3ccc(Oc4ccccc4)cc3)c3c(N)ncnc32)C1"
2

May I ask what drug sensitivity score has been recorded for Cc1cc(C(C)Nc2ccccc2)c2nc(N3CCOCC3)cc(=O)n2c1 (centres undefined) ?
0.6

Can you share its drug sensitivity score? I mean this molecule: "CO[C@H](C(=O)[C@@H](O)[C@@H](C)O)[C@@H]1Cc2cc3cc(O[C@H]4C[C@@H](O[C@@H]5C[C@@H](O)[C@H](O)[C@@H](C)O5)[C@H](O)[C@@H](C)O4)c(C)c(O)c3c(O)c2C(=O)[C@H]1O[C@H]1C[C@@H](O[C@@H]2C[C@@H](O)[C@@H](O[C@@H]3C[C@](C)(O)[C@H](O)[C@@H](C)O3)[C@@H](C)O2)[C@H](O)[C@@H](C)O1"
26.4

* * *

# Test system: FM-MEL-6
# experiment notes: drug sensitivity score (DSS) (DSS (unitless, 0-50 scale)); higher = more sensitive (stronger viability inhibition); extreme values may be limits of the assay
# condition context: 72 h; culture: 2D
A collection of compounds and their measured drug sensitivity score
// print number alone

Known results for compounds:
compound	drug sensitivity score
CCCS(=O)(=O)Nc1ccc(F)c(C(=O)c2c[nH]c3ncc(-c4ccc(Cl)cc4)cc23)c1F	0
CC(C)Oc1ccc(-c2nn([C@@H](C)c3oc4ccc(F)cc4c(=O)c3-c3cccc(F)c3)c3ncnc(N)c23)cc1F	0

Which value of drug sensitivity score has been reported for "O=C(CCNC(=O)c1ccc(OC(F)(F)F)cc1)N[C@@H]1CCCc2ccccc21" in the records?
1.2

# lookup: drug sensitivity score of "CC(=O)c1c(C)c2cnc(Nc3ccc(N4CCNCC4)cn3)nc2n(C2CCCC2)c1=O"
4.2

Consider the compound shown here: "CCCCc1nc2cc(/C=C/C(=O)NO)ccc2n1CCN(CC)CC" What is its recorded drug sensitivity score?
14

Entry "C[C@]1(O)C[C@@H](c2nc(-c3ccc4ccc(-c5ccccc5)nc4c3)c3c(N)nccn32)C1" has what drug sensitivity score?
0.9

// query drug sensitivity score value for entry "CC1(C)C(C(=O)Nc2ccc(S(=O)(=O)c3ccc(NC(=O)C4C(C)(C)C4(C)C)cc3)cc2)C1(C)C"
0

Any idea what its drug sensitivity score is? The compound is "N[C@@H]1CCCN(c2c(/C=C3\SC(=O)NC3=O)cccc2-c2ccccc2)C1"
0.8

Which value of drug sensitivity score has been reported for "CS(=O)(=O)c1ccc(C(=O)Nc2ccc(Cl)c(-c3ccccn3)c2)c(Cl)c1" in the records?
0

What value of measured drug sensitivity score is listed for "Cc1cc(Nc2ncnc3ccc(NC4=NC(C)(C)CO4)cc23)ccc1Oc1ccn2ncnc2c1" ?
0

What value of drug sensitivity score has been recorded for this entry: "C[C@@H](Oc1cc(-c2cnn(C3CCNCC3)c2)cnc1N)c1c(Cl)ccc(F)c1Cl"
0

Recorded drug sensitivity score for CCC1(c2ccc(N)cc2)CCC(=O)NC1=O (stereo unspecified) [Aminoglutethimide] , please?
0

Reported drug sensitivity score for "COc1cc2c(cc1OCCCN1CCCC1)N=C(N)C21CCC1" : what is it?
0.5

Any idea what its drug sensitivity score is? The compound is "CC(C)(O)CNc1nc(Nc2ccnc(C(F)(F)F)c2)nc(-c2cccc(C(F)(F)F)n2)n1"
0

Using the record for "C=CC(=O)N1CCC[C@@H](n2nc(-c3ccc(Oc4ccccc4)cc3)c3c(N)ncnc32)C1" , report its drug sensitivity score.
0

Look up drug sensitivity score: "COc1cc2c(cc1OC(C)C)[C@H](c1ccc(Cl)cc1)N(c1ccc(N(C)C[C@H]3CC[C@H](N4CCN(C)C(=O)C4)CC3)cc1)C(=O)C2"
5

* * *

# Test system: Bowes
# experiment notes: drug sensitivity score (DSS) (DSS (unitless, 0-50 scale)); higher = more sensitive (stronger viability inhibition); extreme values may be limits of the assay
# condition context: 72 h; culture: 2D
readout: drug sensitivity score

Solved entries:
compound	readout	result
CC[C@H](CO)Nc1nc(NCc2ccccc2)c2ncn(C(C)C)c2n1	drug sensitivity score	2.6
COc1cc([C@@H]2c3cc4c(cc3[C@@H](O[C@@H]3O[C@@H]5CO[C@@H](C)O[C@H]5[C@H](O)[C@H]3O)[C@H]3COC(=O)[C@H]23)OCO4)cc(OC)c1O [Etoposide]	drug sensitivity score	2.7

Now for the compound whose drug sensitivity score we want.
Quick check: drug sensitivity score on Bowes, item "CC1(C)CCC(CN2CCN(c3ccc(C(=O)NS(=O)(=O)c4ccc(NCC5CCOCC5)c([N+](=O)[O-])c4)c(Oc4cnc5[nH]ccc5c4)c3)CC2)=C(c2ccc(Cl)cc2)C1" ?
0

* * *

# Tested on: Bowes
# experiment notes: drug sensitivity score (DSS) (DSS (unitless, 0-50 scale)); higher = more sensitive (stronger viability inhibition); extreme values may be limits of the assay
# condition context: 72 h; culture: 2D
Decide using drug sensitivity score: a value greater than or equal to 1 is criterion met, a smaller one is criterion not met.

compound	target system	qualitative label
CN(C)CCOc1ccc(/C(=C(/CCCl)c2ccccc2)c2ccccc2)cc1 [Toremifene]	Bowes	criterion met
CC(C)N(C[C@H]1O[C@@H](n2cnc3c(N)ncnc32)[C@H](O)[C@@H]1O)[C@H]1C[C@@H](CCc2nc3cc(C(C)(C)C)ccc3[nH]2)C1 [Pinometostat]	Bowes	criterion not met

Textbook exercise: given the entry CN1CCN(c2cc(C(=O)Nc3ccc4c(c3)-c3c(c(C(N)=O)nn3-c3ccc(F)cc3)CC4)c(Cl)cn2)CC1 [PHA 408] , state whether its drug sensitivity score is greater than or equal to 1.
criterion not met

Quick check, drug sensitivity score >= 1? COc1cc2c(NC3CCN(C(C)C)CC3)nc(N3CCC(F)(F)CC3)nc2cc1OCCCN1CCCC1 [UNC0642]
criterion met

Does the compound CC[C@]1(O)C[C@@H]2CN(CCc3c([nH]c4ccccc34)[C@@](C(=O)OC)(c3cc4c(cc3OC)N(C)[C@H]3[C@@](O)(C(=O)OC)[C@H](OC(C)=O)[C@]5(CC)C=CCN6CC[C@]43[C@@H]65)C2)C1 [Vinblastine] have recorded drug sensitivity score that is 1 or more?
criterion met
